experimental-details: yeast display, Sf9 membrane polyspecificity reagent, FACS + sequencing; frameworks hold sequencing errors
reported-metric: polyreactivity (PSR sort gate)

>>> reported_result("QVQLVESGGGLVQAGGSLRLSCAASGRIFGLYAMGWYRQATGKERELVAAISSSGGRTYYADSVKGRFTISRDNAKNTVYLQMNSLKPEDTAVYYCAAVYYYRRDGNGYWGQGTQVTVSS")
"high polyreactivity"
>>> reported_result("QVQLVESGGGLDQAAGSLPLSCAASGLIFPVYAMGWYRQAPGKAREFVASIWRGGTTYYADSVKGRFTISRDNAKNTVYLQMNSLNPEDTAVYYCAARYYPSGLVFPFTKYDYWGQGTQVTVSS")
"high polyreactivity"
>>> reported_result("QVQLQESGGGLVQVGGSQRLSCAASGNIFYNYAMGWYRHAQGKEREFDATINHGTSINYADSVKGRFTISRDNAKNTVYLQMNSLKPEDTAVYYCAADLSWTDNLFYWGQGTQVTVIS")
"low polyreactivity"
>>> reported_result("QVQLVESGGGLVQAGGSLRLSCAASGRTFGWYAMGWYRQAPGKEREFVAVISRSGTNTYYADSVKGRFTISRDNAKNTVYLQMNSLKPEDTAVYYCATYWSLSQSRQGDYWGQGTQVTVSS")
"high polyreactivity"
>>> reported_result("QVHLVESGGGLVQAGGILRLSCAASGSTFGYYAMGWYRQAPGKERELVAAITWSGDSTYADSVKGRFTISRDNAKNTVYLQMNSLKPEDTAVYYCARRGFLGHWPRPSYDYWGQGTQVTVSS")
"low polyreactivity"
>>> reported_result("QVQLVESGGGLVQAGGSLRLSCAASGRIFDYYAMGWYRQAPGKERELVAAINSGGSTYYADSVKGRFTISRDNAKNTVYLQMNSLKPEDTAVYYCNALRKSLRGGDYWGQGTQVTVSS")
"high polyreactivity"
>>> reported_result("QVQLVESGGGLFQAGGSLRLSCAPSGRIFRYNAMGWYRQAPGKERELVASISGSGGSTYYADSVKGRFTISRDNAKNTVYLQMNSLTPEDTAVYYCAAQWRYQYPESLESYYWGQGTQVTVSS")
"high polyreactivity"
>>> reported_result("QVQLVESGGGLVQAGGSLRLSCAASGLTFYYNAMGWYRQAPGKERELVAAISRYGGSTYYADSVKGRFRISRDNAKNTDYLQMNSLKPEDTAVYYCAVAYVYTRKGRVQPVKYDYWGQGTQVTVSS")
"high polyreactivity"
>>> reported_result("QVLLVESGGGLVQAGGSLRLSCAASGFIFDVYAMGWYRQAPGKERELVAAISSSGGRKYYADSVKGRFTISRDNAKNTVYLQMNSLKPEDTAVYYCAAKTHSRTKVYTADYWGQGTQVTVSS")
"high polyreactivity"
>>> reported_result("QVQLVESGGGLVQAGGSLRLSCAASGRIFWPNAMGWYLQAPGKESEFVAAIRWSSDRTYYADSVKGRFTISRDNAKNTVYLQMNSLKPEYTAVYYCNAVRYVISKYDYWGHGTQVTVSS")
"high polyreactivity"
>>> reported_result("QVQLEESGGGLVQAGGSLRLSCAASGSTFVVYAMGWYRQAPGKERELVAAISGRGGRTYYADSVKGRFTISRDNAKNTVYLQMISLKPEDTAVYYCSTRYNNLYTIRVGEYDSWGQGTQVTVSS")
"high polyreactivity"
>>> reported_result("QVQRVESGGGLFQAGRSLRLSCAASGFIFSTYAMGWYRQAPGKERELVAAISSGGSTYYADSVKGRFTISRDNAKNTVYLQMNSLKPEDTAVDYCAADLGAYWFSYYYWGQGTQLTVSS")
"high polyreactivity"
>>> reported_result("QVQLVESGGRLVQAGGSLRLSCAASGRTFVSYAMGWYRQAPGKERELVATITGSTGGTYYADSVKGRFTISRDNAKNTVYLQMNSLKPEDTAVYYCNKDYYYNPGNVASGYDYWGHGTQVTVSS")
"low polyreactivity"
>>> reported_result("QLQLVESGGGLVQAGGSLRLSCAASGSTFGPYAMGWYRQAPGKDRELVASITRSGGDTYYADSVKGRFTISRDNAKNSVYLQMNSLKPEDTAVYYCNKASHANEFGYWGQGTQVTVSS")
"high polyreactivity"
>>> reported_result("QVQLVESGGGLVQAGGSLRLSCAASGFTFSSNAMGWYRQAPGKERELVAAISFNSTSTYYADSVKGRFTISRDNAKNTVYIQMNSLKPEDTAVYYCAKESPPAEGDSGYDYWGQGTQVTVSS")
"low polyreactivity"
>>> reported_result("QVQLVESGGGLVQAGGSLRLSFAASGRIFLRYAMVWYRHAPGKERELVAAISSRGGRTYYADSVKGRFTISRDNAKNTVYLQMNSLKPEDTAVYYCAAEGYYVTPFDYWGQGTQVTVSS")
"high polyreactivity"
>>> reported_result("QVQLVESGGGLVQAGGSLRLSCAASGSILSYNAMGWYRQAPGKERELVATITGTGGSTRYADSVKGRFTISRDNAKNTVYLQMNSLKPEDTAVYYCATAAWWYYRIYHEFGYWGQGTQVTVSS")
"high polyreactivity"
>>> reported_result("QVQLVESGGGLVQAGGSLRLSCAASGFTFTYNAMGWYRQAPGKERELVAGISWRGGTTYYADSVKGRFTISRDNAKNTVYLQMNSLKPEDTAVYYCAARNYYRGSGWPSNRGYYWGQGTQVTVSS")
"high polyreactivity"
>>> reported_result("QVQLVESGGGLVQAGGSLRLSCAASGFTFALYAMGWYRQAPGKERELVAAITKGGGSTYYADSVKGRFTISRDNAKITVYLQMNSLKPEDTAVYYCAARGRYSAPDYGYWGQGTQVTVSS")
"high polyreactivity"
>>> reported_result("QVQLEESAGGLVQAGGSLSLICAASGTIVSYAMGWYRQAPGKQRELVAAISRSGGSTYYADSVKGRFTIARDNEKNTVYLQMNSLKPEDTAVYYCAARWRYLTLYAGFNYWGQGTQVTVSS")
"high polyreactivity"
>>> reported_result("QVQLVESGGGLVQAGGSLRLSCAASGFIFRSYAMGWYRQAPGKERELVAAISRSGGSTYYADSVKGRFTISRDNAKNTVYLQMNSLKPEDTAVYYCATDGGRSTARGYGHWGQGTQVTVSS")
"high polyreactivity"

* * *

experimental-details: yeast display, Sf9 membrane polyspecificity reagent, FACS + sequencing; frameworks hold sequencing errors
reported-metric: polyreactivity (PSR sort gate)

>>> reported_result("QVQLVESGGGLVQAGGSLRLSCAASGYIFRYYAMGWYREAPGKERELVARINSGGSTYADSVKGRFTISRDNAKNTVYLQMNSLKPEDTAVYYCAADLAKYRSKLGYWGQVTQVTVSS")
"high polyreactivity"
>>> reported_result("QVQLVESGGGLVQAGGSLRLSCAASGRTFPGYAMGWYRQAPGKERELVATITGNGGSTYYADSVKGRFTISRDNAKNTVYLQMNSLKPDDTAVYYCAAGRRRPYVRAYSGTDYWGQGTQVTVSS")
"low polyreactivity"
>>> reported_result("QVQLVESGGGLVQAGGSLRLRCAASGFIFSYYAMGWYRQAPGKERELVAGISYNGNRTYYADSVEGRFTISRDNAKNTVYLQMNSLKPEDTAVYYCNVVCVLGGWYDLEYDYWGQGTQVTVSS")
"high polyreactivity"
>>> reported_result("QVQLVESGGGLVQAGGSLRLSCAASGSIFYRYARGWYRQAPGKERELVAAISYNGGRTYYADSVKGRFTISRDNAKNTVYLQMNSLKPEDTAVYYCNAAGRDDAYDYWGQGTQVTVSS")
"high polyreactivity"
>>> reported_result("QVQLVESGGGLVQAGGSLRLSCSASGRTFKVYAMGWYRQAPGKERELVAAISYSGAGTRYADSVKGRFTISRDNAKNTVYLQMNSLKPEDTAVYYCNTDAWARVKRYEYWGQGTQVTVSS")
"low polyreactivity"
>>> reported_result("QVQLVESGGGLVQAGGSLRLSCAASGRTFYRNAMGWYIQAPGKERELVAAITWSGVSTYYADSVKGRFTISRDNAKNTVYLQMNSLKPEDTAVYYCARGRVLRNGHYFQLRNYDYWGQGTQVTVSS")
"high polyreactivity"
>>> reported_result("QVQLVESGGGLVQAGGSLRLSCAASGRTFYWNAMGWSIQAPGKERELVASISWSGGRTYYADSVKGRFTISRDNAKNTVYLQMISLKPEDTAVYYCARRYSGTPSTFYYWGQGTLVTVSS")
"high polyreactivity"
>>> reported_result("QVQLVESGGGLVQAGCSLRLSCAASGSTFRKYAMGWYSQAPGKQREFVAAITSSGGSTYYSDSVKGRFTISRDKAKNTVYLLMNSLIPEDTAVYYCASRGVYVSTAYNYWGQGTQVTESS")
"high polyreactivity"
>>> reported_result("QVQLVESGGGLVQAGGSLGLSCAASGFTVYRYAMGWSRQAPGKERELVARTYYADSVKRRFTISRDNAKNTVYLQMNSLKPEDTAVYYCNIDLELEYRYEYWGQGTQVTVSS")
"low polyreactivity"
>>> reported_result("QVQLVESGGGLVQAGGSLLLSCAASGFTFRYYAMGWYRQAPGTERELVAAISSGGNTRYADSVKGRFTISRDNAKITVYLQLNSLKPEDTAVYYCARRPGAPRESYDYWGQGTQVTVSS")
"high polyreactivity"
>>> reported_result("QVQLVESGGGLVQAGGSLSLSCAATGNTFYINNMGWYRQAPGKEREFVAAITWSGGPTYYADSVKGRFTISRDNAKNTVYLQMNSLKPEDTAVYYCAARRSGRWTGWTFYYWGQGTQVTVSS")
"high polyreactivity"
